method notes: folding stability dG unfold from trypsin proteolysis; higher = more stable
Short version: folding stability dG unfold at least 0.7 kcal/mol is MET, less is NOT MET.

Input line: # bool: folding stability dG unfold of SAGGSAGGSAEEPEFEIVSVEYDPETNVLTVVVRDKKTGRLYVFRFYPDGTVEVREVSLEDLSAGGSAGGSA [r18_521_TrROS_Hall] >= 0.7 kcal/mol
Output line: MET

Input line: # bool: folding stability dG unfold of SAGGSAMPDLAAAPGVTRVEPYPDGLVEIHLDGSEEARDEIEERLRAAGDFEIYRLPDRDTLLVRASAGGSA [r15_554_TrMRF] >= 0.7 kcal/mol
Output line: NOT MET

Input line: # bool: folding stability dG unfold of SAGSIPEEIAKELGLPDLKVLKVETKPLPNGPLNIKIIELELPGGFKIKVTVVEEPEKIIIKTEPVPLSAGG [r19_392_JUSTAS] >= 0.7 kcal/mol
Output line: MET

Input line: # bool: folding stability dG unfold of SAGDRIRITMPFDDLRKIMDEIGYPPEQMTAEEFADRLAEHFPGVKVDIEMDREDGYFTVEIELPPGMKSAG [r5_264_TrROS] >= 0.7 kcal/mol
Output line: MET

Input line: # bool: folding stability dG unfold of SAGGSAGGSAGKKITIPNLDVMRNPDDGMAFIQFGGQMIMIPPNVKIEQDPNGWMEIELPSAGGSAGGSAGG [r17_34_TrROS] >= 0.7 kcal/mol
Output line: NOT MET

Input line: # bool: folding stability dG unfold of SAGGSAGGSAGGSAGRLVKETKTTSYIFTFKKPTGEPISKKTSFVTSSLILLSDPSKISSAGGSAGGSAGGS [r4_450_JUSTAS] >= 0.7 kcal/mol
Output line: MET

Input line: # bool: folding stability dG unfold of SAGSSSVTLFPEYTITTTTLPDGSRSVTINFTNPEEAKKLFEENPEIKELIEKFKKEGWDVKINAKNPSSAG [r14_873_JUSTAS] >= 0.7 kcal/mol
Output line: MET

Input line: # bool: folding stability dG unfold of SAGGSAGGSAGGDESYRKLLEELPLPVTEIVVETVPLPETDEPITVVTPKNPDGKEVTLGSAGGSAGGSAGG [r7_337_JUSTAS] >= 0.7 kcal/mol
Output line: NOT MET

Input line: # bool: folding stability dG unfold of SAGGPDELELVIVFPAEALGTGEGGEPYTAEDIAEAIKKELPKDEVEVEIAEIDEETGEIVVTVKVPSAGGS [r16_284_TrMRF] >= 0.7 kcal/mol
Output line: MET

Input line: # bool: folding stability dG unfold of SAGGSAGGSAGGDEEAIKEAAAAAPKDTTTVPVLLPDGKEVTLEVTWHPDGSRTITVRQSAGGSAGGSAGGS [r10_1017_JUSTAS] >= 0.7 kcal/mol
Output line: NOT MET

Input line: # bool: folding stability dG unfold of SAGGSGEVRPLELEFTLPNGAKIKITLHVYPDGTVKVEARIEFGGEYLELRFEFEGEKVPLDFPDFGSAGGS [r16_523_TrMRF] >= 0.7 kcal/mol
Output line: MET

Input line: # bool: folding stability dG unfold of SAGGSAGGSAGGIEDMAEKNPDWKIVEPIEIEIPYYNPDGKWYEVEYTIFVIVPPGDEISAGGSAGGSAGGS [r10_0_TrROS] >= 0.7 kcal/mol
Output line: MET

Input line: # bool: folding stability dG unfold of SAGNSNTRYIVRIKIKKYNPETGKIEEIEIDVPISDDDLNIPVEKIIEALKKAFPNTEIEAEITKVPASAGG [r19_189_TrMRF] >= 0.7 kcal/mol
Output line: MET

Input line: # bool: folding stability dG unfold of SAGGMTLEELKEALKKLPPNVKEVKITVVEKNGKLVVVVEVNGKKLVIEFDSEEERKLAEELVKELLSSAGG [r13_287_TrROS_Hall] >= 0.7 kcal/mol
Output line: MET

Input line: # bool: folding stability dG unfold of SAGGSVTLSAEFTLPDGSRVRLTVEVLPDGTLRVSAEVEAVPLVPPVRVSRLPDGSLVSDPLGVPLVLSAGG [r13_151_TrMRF] >= 0.7 kcal/mol
Output line: MET

Input line: # bool: folding stability dG unfold of SAGGSLPADAEVTEVVEDPSKGVVTVKVTVRDSEGKVVEERTVVTPVEPVPPLSPENLKKNLLLTLLSAGGS [r16_697_JUSTAS] >= 0.7 kcal/mol
Output line: NOT MET

Input line: # bool: folding stability dG unfold of SAGGSAGGSAGGELKLLRIEVTGRAPYPTELLKTVEIVLPNEDVTEEQIRELLKELGIELSAGGSAGGSAGG [r7_903_TrMRF] >= 0.7 kcal/mol
Output line: NOT MET

Input line: # bool: folding stability dG unfold of SMKLIGYDPVTGKPVTLTFDPETKTVTVTHPNGEKITAPAESITFDPETGTVTITLPTKTVTFYVPPEANSA [r9_325_TrMRF] >= 0.7 kcal/mol
Output line: MET

Input line: # bool: folding stability dG unfold of SAGGSAGGSARITVTPEGGYWRVTIKGPGKTRTFQFPMPANEAEEIVEELQNPPIDIDVEPVSAGGSAGGSA [r18_103_TrROS] >= 0.7 kcal/mol
Output line: NOT MET

Input line: # bool: folding stability dG unfold of SAGMKVIEIDVPVSKIEEVKEELEAEAKEKGLNIKFEKLEKLPGNKYKMIVTVTDPTSNEKTIYNINILSAG [r5_41_JUSTAS] >= 0.7 kcal/mol
Output line: MET

Input line: # bool: folding stability dG unfold of SAGGSAEKPTATLRPVVLNYPEGPISRDPSGNVVNSPEELAKEVKEEILKKTGLPVEEIVVLVEPPSAGGSA [r15_415_JUSTAS] >= 0.7 kcal/mol
Output line: NOT MET

Input line: # bool: folding stability dG unfold of SAGGSAGGSAGKWKTITILIPNMPVEEIADRIMDKFGPGIRITEITPNKPGWFWITIIVRSAGGSAGGSAGG [r11_580_TrROS] >= 0.7 kcal/mol
Output line: MET

Input line: # bool: folding stability dG unfold of SAGGRLVRIKVDIYSPGDGEPHEFEFLLHVDANGSVEIYFPNGKRIRIPPNMKVKIKDIEVLDPDQISAGGS [r16_223_TrROS] >= 0.7 kcal/mol
Output line: MET

Input line: # bool: folding stability dG unfold of SAGGSAGGSAGEVEIEITKVTENEDGSETLEMTIRDKDTGKTYKLTFNKDNGILTLEEEPSAGGSAGGSAGG [r11_991_TrROS_Hall] >= 0.7 kcal/mol
Output line: MET

Input line: # bool: folding stability dG unfold of IETGEYDIEIELPAPNGYKVKVKFKFVKVDPENGKVYVEVELEVTLPGGKPIKLPLRLVMPAEEIKKFLESS [r1_371_TrMRF] >= 0.7 kcal/mol
Output line: MET

Input line: # bool: folding stability dG unfold of SAGGSAGGSAGATISPDGYKIVVTNADGEKVTLTFDSLEEAKAALEALLPPGARVFIEKVSAGGSAGGSAGG [r11_983_TrROS_Hall] >= 0.7 kcal/mol
Output line: NOT MET

Input line: # bool: folding stability dG unfold of SAGGSAGGSAGGKEKKELYVVIKVDKNMTPEEIAEKLKKEFNVDKVEVEVREDGYLVVKVSAGGSAGGSAGG [r7_273_TrROS_Hall] >= 0.7 kcal/mol
Output line: MET
